Molecular target: KRAS G13C (Homo sapiens (Human), UniProt P01116+P62937, G13C)
Sequence (P01116 other isoform, or with tags, fused parts or gaps G13C): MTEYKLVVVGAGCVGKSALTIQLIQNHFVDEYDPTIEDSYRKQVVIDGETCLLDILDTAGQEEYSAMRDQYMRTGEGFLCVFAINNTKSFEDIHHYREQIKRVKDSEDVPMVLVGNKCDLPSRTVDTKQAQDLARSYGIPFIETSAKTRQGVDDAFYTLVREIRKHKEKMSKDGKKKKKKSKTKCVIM
Sequence (P62937 whole entry): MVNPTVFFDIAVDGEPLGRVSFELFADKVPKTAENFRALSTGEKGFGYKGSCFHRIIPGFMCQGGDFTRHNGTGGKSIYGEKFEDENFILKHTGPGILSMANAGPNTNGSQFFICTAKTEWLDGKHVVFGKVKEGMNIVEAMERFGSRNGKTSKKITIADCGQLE
Assay: Ras-Raf disruption/FRET/MOA assay (BRAF RBD, Cyclophilin A)
Format: biochemical
Conditions: read-out: KRAS G13C FRET IC50
pIC50: −log10 of the molar value.
TEST READOUT: pIC50

CCn1c(-c2cccnc2[C@H](C)OC)c2c3cc(ccc31)-c1csc(n1)C[C@H](NC(=O)[C@H](C(C)C)N1CCCN(C)C1=O)C(=O)N1CCC[C@H](N1)C(=O)OCC(C)(C)C2; 5.00 to 6.00
CCn1c(-c2cccnc2[C@H](C)OC)c2c3cc(ccc31)-c1cc(O)cc(c1)C[C@H](NC(=O)[C@H](C(C)C)N(C)C(=O)C1(CN)CC1)C(=O)N1CCC[C@H](N1)C(=O)OCC(C)(C)C2; 7.00 to 8.00
CCOC1c2nc(cs2)-c2ccc3c(c2)c(c(-c2cc(C4CC5COCC(C4)N5C4CC4)cnc2C(C)OC)n3CC)CC(C)(C)COC(=O)C2CCCN(N2)C(=O)C1NC(=O)C1C(C)C1C (stereo not shown); 6.00 to 7.00
CCn1c(-c2cccnc2[C@H](C)OC)c2c3cc(ccc31)-c1csc(n1)C[C@H](NC(=O)[C@H](C(C)C)N(C)C(=O)N1CC(S(C)(=O)=O)C1)C(=O)N1CCC[C@H](N1)C(=O)OCC(C)(C)C2; 6.00 to 7.00
CCn1c(-c2cccnc2[C@H](C)OC)c2c3cc(ccc31)-c1cc(cc3nc[nH]c13)C[C@H](NC(=O)[C@H](C(C)C)N(C)C(C)=O)C(=O)N1CCC[C@H](N1)C(=O)OCC(C)(C)C2; < 5.00
CCn1c(-c2cccnc2[C@H](C)OC)c2c3cc(ccc31)-c1cc(O)cc(c1)C[C@H](NC(=O)[C@H](C(C)C)N(C)C(=O)[C@H]1OCC[C@H]1c1ccccc1)C(=O)N1CCC[C@H](N1)C(=O)OCC(C)(C)C2; 6.00 to 7.00
CCn1c(-c2cccnc2[C@H](C)OC)c2c3cc(ccc31)-c1csc(n1)C[C@H](NC(=O)[C@H](C(C)C)N(C)C(=O)N1CCN3CCOCC3C1)C(=O)N1CCC[C@H](N1)C(=O)OCC(C)(C)C2 (stereo partly shown); 6.00 to 7.00
CCn1c(-c2cccnc2[C@H](C)OC)c2c3cc(ccc31)-c1csc(n1)C[C@H](NC(=O)[C@H](C(C)C)N(C)C(=O)[C@H]1CCN(S(C)(=O)=O)C1)C(=O)N1CCC[C@H](N1)C(=O)OCC(C)(C)C2; 5.00 to 6.00
CCn1c(-c2cccnc2[C@H](C)OC)c2c3cc(ccc31)-c1cc(O)cc(c1)C[C@H](NC(=O)[C@H](C(C)C)N(C)C(=O)[C@@H]1[C@@H]3CNC[C@@H]31)C(=O)N1CCC[C@H](N1)C(=O)OCC(C)(C)C2; 7.00 to 8.00
CCn1c(-c2cccnc2[C@H](C)OC)c2c3cc(ccc31)-c1cc(O)cc(c1)C[C@H](NC(=O)[C@H](C(C)C)N(C)C(=O)N1CC(OC)C1)C(=O)N1CCC[C@H](N1)C(=O)OCC(C)(C)C2; 7.00 to 8.00

Lab note: need pIC50 with KRAS G13C (Homo sapiens (Human), UniProt P01116+P62937, G13C) for entry CCn1c(-c2cccnc2[C@H](C)OC)c2c3cc(ccc31)-c1cc(O)cc(c1)C[C@H](NC(=O)[C@H](C(C)C)N(C)C(=O)[C@H]1CCN(C(C)=O)C1)C(=O)N1CCC[C@H](N1)C(=O)NCC(C)(C)C2 , please look it up.
6.00 to 7.00

Follow-up item: CCn1c(-c2cccnc2[C@H](C)OC)c2c3cc(ccc31)-c1csc(n1)C[C@H](NC(=O)[C@H](C(C)C)N(C)C(=O)[C@@H]1[C@@H]3CN(C)C[C@@H]31)C(=O)N1CCC[C@H](N1)C(=O)OCC(C)(C)C2
6.00 to 7.00

Follow-up item: CCn1c(-c2cccnc2[C@H](C)OC)c2c3cc(ccc31)-c1cc(c3cn[nH]c3c1)C[C@H](NC(=O)[C@H](C(C)C)N(C)C(C)=O)C(=O)N1CCC[C@H](N1)C(=O)OCC(C)(C)C2
6.00 to 7.00
